Biological target: T1, alpha-s1 casein from Bos taurus
T1 chain: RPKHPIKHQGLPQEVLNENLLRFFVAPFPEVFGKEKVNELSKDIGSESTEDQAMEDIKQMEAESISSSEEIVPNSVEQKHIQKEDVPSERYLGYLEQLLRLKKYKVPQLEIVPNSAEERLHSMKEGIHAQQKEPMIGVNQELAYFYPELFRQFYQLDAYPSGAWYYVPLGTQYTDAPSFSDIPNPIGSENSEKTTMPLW
MEASUREMENT_TYPE: small, 6 hours, 11° C.
Field note: include the unit after the figure.

What the record says about bovine chymosin B variant #6 (K221M) (protein) GEVASVPLTNYLDSQYFGKIYLGTPPQEFTVLFDTGSSDFWVPSIYCKSNACKNHQRFDPRKSSTFQNLGKPLSIHYGTGSMQGILGYDTVTVSNIVDIQQTVGLSTQEPGDVFTYAEFDGILGMAYPSLASEYSIPVFDNMMNRHLVAQDLFSVYMDRNGQESMLTLGAIDPSYYTGSLHWVPVTVQQYWQFTVDSVTISGVVVACEGGCQAILDTGTSMLVGPSSDILNIQQAIGATQNQYGEFDIDCDNLSYMPTVVFEINGKMYPLTPSAYTSQDQGFCTSGFQSENHSQKWILGDVFIREYYSVFDRANNLVGLAKAI : small, 6 hours, 11° C. is 0 Volume
